# Protocol: Toxicity (LD50)
# Experimental Conditions: mouse, in vivo, ip, mice; read-out: Toxicity LD50
Value Kind: LD50 (mg/kg)
Report the value in mg/kg with no unit label.

Example compounds with recorded LD50:
>>> measurement("Cc1ccccc1-c1nc(-c2cccc(Cl)c2)nn1C")
700
>>> measurement("Cn1nc(-c2ccccc2Cl)nc1-c1ccccc1CO")
500

Next up:
Problem: Returns the measured LD50 for the input compound. Input: "Cn1nc(-c2cccc(F)c2)nc1-c1ccccc1CO"
Result: 400

====

Reported minimal effective dose values for a set of compounds
# Test system: mice
# Protocol: Minimal dosis which produces complete hypnosis (MHD)
# Type: in vivo
# Experimental Conditions: Mus musculus, ip, mice; complete hypnosis; read-out: Minimal hypnotic dosis
Report the value in mg/kg with no unit label.

>>> measurement("Cn1nc(-c2ccc3c(c2)OCO3)nc1-c1ccccc1CO")
300

Problem: Returns the measured minimal effective dose for the input compound. Input: "Cn1nc(-c2ccccc2Cl)nc1-c1ccccc1CO"
Result: 300

Problem: Returns the measured minimal effective dose for the input compound. Input: "Cc1cccc(-c2nc(-c3ccccc3C)n(C)n2)c1"
Result: 200

Problem: Returns the measured minimal effective dose for the input compound. Input: "Cn1nc(-c2cccc(Cl)c2)nc1-c1ccccc1CO"
Result: 200

Problem: Returns the measured minimal effective dose for the input compound. Input: "Cc1ccccc1-c1nc(-c2ccccc2)nn1C"
Result: 300

Problem: Returns the measured minimal effective dose for the input compound. Input: "COc1cccc(-c2nc(-c3ccccc3C)n(C)n2)c1"
Result: 300

Problem: Returns the measured minimal effective dose for the input compound. Input: "Cc1ccc(-c2nc(-c3ccccc3CO)n(C)n2)cc1"
Result: 600

Problem: Returns the measured minimal effective dose for the input compound. Input: "Cc1ccccc1-c1nc(-c2ccccc2CO)n(C)n1"
Result: 600

Problem: Returns the measured minimal effective dose for the input compound. Input: "Cn1nc(-c2ccccc2)nc1-c1ccccc1CO"
Result: 300

====

# Protocol: Toxicity (LD50)
# Experimental Conditions: mouse, in vivo, ip, mice; read-out: Toxicity LD50
Value Kind: LD50 (mg/kg)
Report the value in mg/kg with no unit label.

Example molecules with recorded LD50:
>>> measurement("Cn1nc(-c2cccc([N+](=O)[O-])c2)nc1-c1ccccc1CO")
1000
>>> measurement("Cn1nc(-c2cccc(Cl)c2)nc1-c1ccccc1CO")
500
>>> measurement("Cn1nc(-c2ccccc2)nc1-c1ccccc1CO")
1000
>>> measurement("Cn1nc(-c2ccccc2)nc1-c1ccccc1 [Compound A, 1-methyl-3,5-diphenyl-1,2,4-triazole, reference compound]")
1000
>>> measurement("Cc1ccccc1-c1nc(-c2cccc(N)c2)nn1C")
200
>>> measurement("COc1cccc(-c2nc(-c3ccccc3C)n(C)n2)c1")
1000

Next up:
Problem: Returns the measured LD50 for the input molecule. Input: "Cc1ccccc1-c1nc(-c2ccccc2CO)n(C)n1"
Result: 1000

====

# Tested on: mice
# Protocol: Minimal dosis which produces complete hypnosis (MHD)
# Format: in vivo
# Experimental Conditions: Mus musculus, ip, mice; complete hypnosis; read-out: Minimal hypnotic dosis
Reported minimal effective dose values for a set of compounds

>>> measurement("Cn1nc(-c2cccc([N+](=O)[O-])c2)nc1-c1ccccc1CO")
"300 mg/kg"
>>> measurement("COc1cccc(-c2nc(-c3ccccc3CO)n(C)n2)c1")
"300 mg/kg"
>>> measurement("Cc1ccccc1-c1nc(-c2cccc(N)c2)nn1C")
"60 mg/kg"

Problem: Returns the measured minimal effective dose for the input compound. Input: "Cc1ccccc1-c1nc(-c2cccc(Cl)c2)nn1C"
Result: 300 mg/kg

Problem: Returns the measured minimal effective dose for the input compound. Input: "Cc1cccc(-c2nc(-c3ccccc3CO)n(C)n2)c1"
Result: 80 mg/kg

Problem: Returns the measured minimal effective dose for the input compound. Input: "Cn1nc(-c2cccc(F)c2)nc1-c1ccccc1CO"
Result: 150 mg/kg

Problem: Returns the measured minimal effective dose for the input compound. Input: Cn1nc(-c2ccccc2)nc1-c1ccc(Cl)cc1 [Compound B, reference compound]
Result: > 600 mg/kg

====

# Protocol: Toxicity (LD50)
# Experimental Conditions: mouse, in vivo, ip, mice; read-out: Toxicity LD50
Reported LD50 values for a set of molecules

Example molecules with recorded LD50:
>>> measurement("Cc1cccc(-c2nc(-c3ccccc3C)n(C)n2)c1")
"> 1000 mg/kg"
>>> measurement("Cc1ccccc1-c1nc(-c2ccccc2)nn1C")
"> 1000 mg/kg"

Next up:
Problem: Returns the measured LD50 for the input molecule. Input: Cn1nc(-c2ccccc2)nc1-c1ccc(Cl)cc1 [Compound B, reference compound]
Result: > 1000 mg/kg
